Source: patent US20240018189A1

- system.under.test: T1, human ferroportin (SLC40A1) fused in frame with GFP (human) (UniProt Q9NP59)
- T1 sequence (looked up): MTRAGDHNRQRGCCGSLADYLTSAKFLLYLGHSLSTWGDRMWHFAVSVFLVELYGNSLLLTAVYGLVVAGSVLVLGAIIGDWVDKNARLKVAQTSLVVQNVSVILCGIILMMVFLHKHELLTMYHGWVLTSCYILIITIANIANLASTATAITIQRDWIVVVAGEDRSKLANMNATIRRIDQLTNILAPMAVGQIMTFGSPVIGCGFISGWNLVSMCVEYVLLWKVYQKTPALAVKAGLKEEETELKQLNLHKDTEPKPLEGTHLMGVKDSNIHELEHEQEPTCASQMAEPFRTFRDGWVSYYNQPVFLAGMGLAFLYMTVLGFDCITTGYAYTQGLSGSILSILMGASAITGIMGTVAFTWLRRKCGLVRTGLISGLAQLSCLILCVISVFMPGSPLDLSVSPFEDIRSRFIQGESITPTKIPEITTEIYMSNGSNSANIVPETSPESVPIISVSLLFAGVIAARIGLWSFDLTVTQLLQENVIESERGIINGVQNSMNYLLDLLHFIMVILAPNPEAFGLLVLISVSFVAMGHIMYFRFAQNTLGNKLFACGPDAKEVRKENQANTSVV
- assay.details: cell-based or functional assay
Positions of bridges follow the written chain, without caps; N, C: chain ends. Non-standard residues stand in square brackets, D forms with d. Groups on a side chain read outwards from the residue. *: point of attachment. PEG12 = NCCOCCOCCOCCOCCOCCOCCOCCOCCOCCOCCOCCOCCC(=O)O; Phe(4-tBu) = CC(C)(C)c1ccc(C[C@H](N)C(=O)O)cc1; Phe(4-CN) = N#Cc1ccc(C[C@H](N)C(=O)O)cc1; Dip = N[C@H](C(=O)O)C(c1ccccc1)c1ccccc1; 2Nal = N[C@@H](Cc1ccc2ccccc2c1)C(=O)O; Palmitoyl = CCCCCCCCCCCCCCCC(=O)*; αMeF = C[C@](N)(Cc1ccccc1)C(=O)O; Isovaleryl = CC(C)CC(=O)*; αMeC = C[C@](N)(CS)C(=O)O; Npc = nipecotic acid
Exercise: for every item that follows, state its recorded IC50: FPN internalisation.
Write the number in nM without appending the unit.

Enquiry: Quick one: IC50: FPN internalisation of Isovaleryl-DTH[Dip][Npc]CI[dK][αMeF]K([PEG12-Palmitoyl])KC-NH2 (disulfide 6-12 (inferred)) [Seq. No. 348] ?
Return: 2.1

Enquiry: Quick one: IC50: FPN internalisation of Isovaleryl-DTH[Dip][Npc]CI[dK][2Nal]K([PEG12-Palmitoyl])KC-NH2 (disulfide 6-12 (inferred)) [Seq. No. 357] ?
Return: 10.2

Enquiry: Quick one: IC50: FPN internalisation of DTHXPCIKXKC (N-term isovaleric acid; 4 Dpa; 8 Lys(Ahx_Palm); 9 2Pal; 10 (D)Lys; C-term NH2) [Seq. No. 321] ?
Return: 21.7

Enquiry: Quick one: IC50: FPN internalisation of Isovaleryl-DTHF[Npc]CI[dK]FK([PEG12-Palmitoyl])[dK]C-NH2 (disulfide 6-12 (inferred)) [Seq. No. 351] ?
Return: 13.2

Enquiry: Quick one: IC50: FPN internalisation of Isovaleryl-DTH[Dip][Npc]CI[dK][Phe(4-CN)]K([PEG12-Palmitoyl])KC-NH2 (disulfide 6-12 (inferred)) [Seq. No. 347] ?
Return: 23

Enquiry: Quick one: IC50: FPN internalisation of Isovaleryl-DTH[Dip][Npc]CI[dK][Phe(4-tBu)]K([PEG12-Palmitoyl])KC-NH2 (disulfide 6-12 (inferred)) [Seq. No. 359] ?
Return: 8.57

Enquiry: Quick one: IC50: FPN internalisation of Isovaleryl-DTHFPCI[dK]FK([PEG12-Palmitoyl])K[αMeC]-NH2 (disulfide 6-12 (inferred)) [Seq. No. 355] ?
Return: 7.55

Enquiry: Quick one: IC50: FPN internalisation of DTHXPCIKXKC (N-term isovaleric acid; 4 Dpa; 8 (D)Lys(Ac); 9 bhPhe; 10 Lys(Ac); C-term NH2) [Seq. No. 325] ?
Return: 37.8

Enquiry: Quick one: IC50: FPN internalisation of DTHXPCIKFKKX (N-term isovaleric acid; 4 Dpa; 8 (D)Lys; 10 Lys(PEG12_Palm); 11 (D)Lys; 12 Pen; C-term NH2) [Seq. No. 344] ?
Return: 7.75

Enquiry: Quick one: IC50: FPN internalisation of DTHXPCIKXKKC (N-term isovaleric acid; 4 Dpa; 8 (D)Lys; 9 bhPhe; 11 (D)Lys; C-term NH2) [Seq. No. 327] ?
Return: 142

Enquiry: Quick one: IC50: FPN internalisation of DTHXPCIKFKXC (N-term isovaleric acid; 4 Dpa; 8 (D)Lys; 10 Lys(PEG12 Palm); 11 Dab; C-term NH2) [Seq. No. 339] ?
Return: 22.8
